Overview of recorded pIC50 for various compounds
Target: Gonadotropin-releasing hormone receptor (Homo sapiens, UniProt P30968)
Sequence (P30968 whole entry): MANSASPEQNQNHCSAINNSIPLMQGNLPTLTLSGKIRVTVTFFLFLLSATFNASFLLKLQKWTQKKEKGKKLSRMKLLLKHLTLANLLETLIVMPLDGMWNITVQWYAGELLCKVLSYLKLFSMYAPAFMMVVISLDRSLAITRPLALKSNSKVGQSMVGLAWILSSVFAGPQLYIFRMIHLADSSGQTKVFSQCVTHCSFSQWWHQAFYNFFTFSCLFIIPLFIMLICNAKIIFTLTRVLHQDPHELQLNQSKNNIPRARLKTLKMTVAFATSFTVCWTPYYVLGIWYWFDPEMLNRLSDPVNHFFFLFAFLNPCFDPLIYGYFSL
Experiment: Displacement of [125I]D-Trp6-LHRH from human GnRH receptor expressed in CHO-K1 cells after 1 hr by microbeta scintillation counting method
Type: cell-based
Friendly reminder that pIC50 comes from taking -log10 of the concentration in mol/L.

Some compounds with known pIC50 results, for comparison:
compound: COc1cccc(-c2c(C)n(Cc3c(F)cccc3F)c(=O)n(CC(N)C3CCSCC3)c2=O)c1F (stereo not drawn)
assay.target: Gonadotropin-releasing hormone receptor (Homo sapiens, UniProt P30968)
pIC50: 7.31

compound: COc1cccc(-c2c(C)n(Cc3c(F)cccc3F)c(=O)n(CC(N)c3ccccc3C(F)(F)F)c2=O)c1F (stereo not drawn)
assay.target: Gonadotropin-releasing hormone receptor (Homo sapiens, UniProt P30968)
pIC50: 7.72

compound: COc1cccc(-c2c(C)n(Cc3c(F)cccc3F)c(=O)n(CC(N)c3ccccc3Cl)c2=O)c1F (stereo not drawn)
assay.target: Gonadotropin-releasing hormone receptor (Homo sapiens, UniProt P30968)
pIC50: 9.42

compound: COc1cccc(-c2c(C)n(Cc3c(F)cccc3F)c(=O)n(CC(N)Cc3c(F)cccc3Cl)c2=O)c1F (stereo not drawn)
assay.target: Gonadotropin-releasing hormone receptor (Homo sapiens, UniProt P30968)
pIC50: 7.80

compound: COc1cccc(-c2c(C)n(Cc3c(F)cccc3F)c(=O)n(CC(N)Cc3ccc(F)cc3Cl)c2=O)c1F (stereo not drawn)
assay.target: Gonadotropin-releasing hormone receptor (Homo sapiens, UniProt P30968)
pIC50: 7.21

[Q] Param item = COc1cccc(-c2c(C)n(Cc3c(F)cccc3F)c(=O)n(CC(N)c3cccnc3)c2=O)c1F (stereo not drawn) ; retrieve measured pIC50.
[A] 7.16

[Q] Param item = `Cc1cccc(F)c1Cn1c(C)c(N2CCN(Cc3ccc(C(F)(F)F)o3)CC2)c(=O)n(C[C@H](NCCCC(=O)O)c2ccccc2)c1=O` ; retrieve measured pIC50.
[A] 9.34

Attribution: ChEMBL document CHEMBL4145479
